What follows is a collection of IC50 values obtained with YES (Homo sapiens, UniProt P07947).
Sequence (P07947 whole entry): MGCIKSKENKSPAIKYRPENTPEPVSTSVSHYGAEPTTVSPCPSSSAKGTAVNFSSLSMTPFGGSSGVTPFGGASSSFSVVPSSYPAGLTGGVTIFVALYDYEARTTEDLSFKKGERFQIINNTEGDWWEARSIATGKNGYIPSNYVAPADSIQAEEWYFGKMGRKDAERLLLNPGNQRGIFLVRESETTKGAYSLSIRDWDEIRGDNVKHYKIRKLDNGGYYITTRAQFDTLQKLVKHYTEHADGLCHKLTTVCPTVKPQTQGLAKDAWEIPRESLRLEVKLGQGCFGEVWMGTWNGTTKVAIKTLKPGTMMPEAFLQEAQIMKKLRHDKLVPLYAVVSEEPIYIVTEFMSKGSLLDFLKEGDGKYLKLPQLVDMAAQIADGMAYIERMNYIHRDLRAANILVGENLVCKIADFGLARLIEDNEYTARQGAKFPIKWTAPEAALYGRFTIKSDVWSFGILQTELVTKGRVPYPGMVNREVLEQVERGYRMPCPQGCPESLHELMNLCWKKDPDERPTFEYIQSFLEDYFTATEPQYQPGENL
Measured Property: IC50 (nM)

{"Smiles Entry": "C=CC(=O)Nc1ccc(CN2C(=O)N(c3cc(OC)cc(OC)c3)Cc3cnc(Nc4ccc(N5CCN(C)CC5)cc4)nc32)cc1", "Unit Of Measure": "nM", "Result Modifier": "=", "Measured": 365}
{"Smiles Entry": "C=CC(=O)N1CCN(CCCn2c(=O)c(-c3c(Cl)c(OC)cc(OC)c3Cl)cc3cnc(NC)nc32)CC1", "Unit Of Measure": "nM", "Result Modifier": ">", "Measured": 5000}

###

Below, each entry is listed alongside its reported IC50.
biological target: HCK (Homo sapiens)
Sequence (P08631 247-526): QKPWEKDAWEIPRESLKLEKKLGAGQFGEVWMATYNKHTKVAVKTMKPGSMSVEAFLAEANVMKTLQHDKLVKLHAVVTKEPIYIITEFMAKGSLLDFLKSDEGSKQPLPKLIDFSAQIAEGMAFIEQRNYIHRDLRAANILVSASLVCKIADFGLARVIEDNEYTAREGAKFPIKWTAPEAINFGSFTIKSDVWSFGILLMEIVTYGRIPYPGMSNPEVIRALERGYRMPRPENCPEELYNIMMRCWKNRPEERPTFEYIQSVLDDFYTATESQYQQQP
Measured Property: IC50

{"Compound": "C=CC(=O)Nc1ccc(CN2C(=O)N(c3cc(OC)cc(OC)c3)Cc3cnc(Nc4ccc(N5CCN(C)CC5)cc4)nc32)cc1 [FIIN-2]", "Measured": "> 5 µM"}
{"Compound": "C=CC(=O)N1CCN(CCCn2c(=O)c(-c3c(Cl)c(OC)cc(OC)c3Cl)cc3cnc(NC)nc32)CC1 [PRN1371]", "Measured": "> 5 µM"}
